Tested on: bermudagrass
Assay: Test C pre-/postemergence herbicide test
Format: in vivo, Cynodon dactylon
Settings: 62 g ai/ha; preemergence; scale 0 to 100, 0 no effect, 100 complete control
Label condition met for high-side Plant response rating, Bermudagrass (at or above 90) and condition not met for low-side Plant response rating, Bermudagrass (below it).

Consider the following illustrative entries.
>  <Molecule>
C=CCNC(=O)c1cccc(NC(=O)c2nn(C(C)(C)C)nc2CC)c1 [Compound 414]

>  <Classification>
condition met

$$$$
>  <Molecule>
CCNC(=O)c1cccc(NC(=O)c2sc(C(C)(C)C)nc2C)c1 [Compound 198]

>  <Classification>
condition not met

$$$$

[Q] Kindly determine if Plant response rating, Bermudagrass recorded for CCn1nc(C2(C)CC2)cc1C(=O)Nc1cc(C(=O)N(C)C)ccc1F [Compound 299] is above or exactly 90.
[A] condition met

[Q] Kindly determine if Plant response rating, Bermudagrass recorded for CCc1nn(C(C)(C)C)nc1C(=S)Nc1cccc(C(=S)N(C)C)c1 [Compound 396] is above or exactly 90.
[A] condition met

[Q] Kindly determine if Plant response rating, Bermudagrass recorded for CCc1nn(C(C)(C)C)cc1C(=O)Nc1cc(C(=O)N(CC)CC)ccc1F [Compound 223] is above or exactly 90.
[A] condition not met
